Kindly supply the reported protein stability index values for the records listed here.
B1: HESX1 (parent)
chain: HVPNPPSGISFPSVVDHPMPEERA

variants of: B1; assay: protein stability index of a GFP-peptide fusion (GPS, HEK-293T) (PSI 1-6); higher = more stable; conditions: c terminus: a fixed tail appended;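 further: lentivirally expressed fusions sorted by FACS into six bins by GFP to DsRed ratio, PSI derived from sequencing read proportions per bin multiplied by bin number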
One number for each entry.

Query block: Please give the measured protein stability index for this variant: `P3C`
Result block: 3.54

Value sought for every listed variant: protein stability index.
1. P5R
2. P6Q
3. V15S
4. P3M
5. N4Y
6. S7D
7. S13Y
8. P6F

Result block:
[3.28, 2.67, 2.99, 4.21, 3.06, 2.8, 1.94, 1.59]
